# Assay System: βCat-TCF4 (Tcf-4-βCatenin interaction) (Homo sapiens, UniProt P35222)
# Sequence (P35222 141-664 limits assumed): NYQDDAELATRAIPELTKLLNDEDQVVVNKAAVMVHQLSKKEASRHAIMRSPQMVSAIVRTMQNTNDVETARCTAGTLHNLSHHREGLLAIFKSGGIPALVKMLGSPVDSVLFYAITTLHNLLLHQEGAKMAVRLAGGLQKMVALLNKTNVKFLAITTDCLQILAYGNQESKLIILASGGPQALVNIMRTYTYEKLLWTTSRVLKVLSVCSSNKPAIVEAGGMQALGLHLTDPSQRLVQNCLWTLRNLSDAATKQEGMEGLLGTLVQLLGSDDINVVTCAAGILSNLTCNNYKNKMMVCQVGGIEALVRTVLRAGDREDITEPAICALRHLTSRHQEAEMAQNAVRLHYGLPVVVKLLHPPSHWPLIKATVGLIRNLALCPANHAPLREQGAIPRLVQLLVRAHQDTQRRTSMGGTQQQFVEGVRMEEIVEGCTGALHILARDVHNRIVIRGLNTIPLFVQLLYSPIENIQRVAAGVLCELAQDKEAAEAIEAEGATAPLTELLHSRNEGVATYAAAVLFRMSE
# Method Notes: ELISA based protein-protein interaction assay, βCat-TCF4
# Experimental Parameters: Example 1
Parameter: IC50

Q: Suppose we examine the compound CCCC(=O)Nc1ccc(-c2cnc(-c3ccc(NC(=O)CCC)cc3)nc2)cc1 ; what IC50 value has been reported?
A: > 100 µM

Q: Again, but for COC(=O)c1ccc(NC(=O)c2cc(OC)c(C(=O)Nc3ccc(C(=O)OC)cc3)cc2OC)cc1
A: > 100 µM

Q: What about this compound? COC(=O)c1cc(NC(=O)c2ccc(C(=O)Nc3cc(C(=O)OC)cc(C(=O)OC)c3)nc2)cc(C(=O)OC)c1
A: > 100 µM

Q: Thanks! And O=C(Nc1ccc2oc(=O)ccc2c1)c1ccc(C(=O)Nc2ccc3oc(=O)ccc3c2)cc1 ?
A: > 10 µM

Q: Let us now turn to O=C(NCc1ccco1)c1ccc(C(=O)NCc2ccco2)nc1
A: > 50 µM

Q: Also need O=C(NCc1ccc2c(c1)OCO2)c1ccc(C(=O)NCc2ccc3c(c2)OCO3)nc1 , thanks.
A: > 50 µM

Q: Entry COC(=O)c1ccc(NC(=O)c2ccc(C(=O)Nc3ccc(C(=O)OC)cc3Cl)nc2)c(Cl)c1 please
A: 22 µM

Origin of measurements: patent US20100204219A1
